Target: Bromodomain-containing protein 4 (Homo sapiens, UniProt O60885)
Assay: Inhibition of Halo-tagged histone H4 binding to C-terminally NanoLuc luciferase conjugated human BRD4 FL expressed in human HCT116 cells after 4 to 24 hrs by BRET assay
Type: cell-based
pIC50: −log10 of the molar value.

# CHEMICAL STRUCTURE, pIC50
measured = [
    ("Cc1cc2c(cc1N1C(=O)c3cccc4c(CCCO)ccc(c34)C1=O)n(C)c(=O)n2C", "< 5.00"),
]

###

Test: Intrinsic clearance in dog hepatocytes at 1 uM after 90 mins by LC/MS/MS analysis
Type: ADME, cell-based, Canis lupus familiaris, Hepatocyte
Conditions: read-out: CLH (converted)
PROPERTY MEASURED: CLint scaled at […], 1 µM (mL/min/kg)

# CHEMICAL STRUCTURE, PROPERTY MEASURED, UNIT, VALUE MEASURED
rows = [
    ("Cc1cc2c(cc1N1C(=O)c3cccc4c(CCCO)ccc(c34)C1=O)n(C)c(=O)n2C", "CLint scaled at […], 1 µM", "mL/min/kg", 25),
]
